- System: ApoE −/− mice, carotid artery
- TEST_NAME: Biodistribution in ApoE ligation model of atherosclerosis (ligated and sham)
- Assay type: in vivo
- CONDITION_SUMMARY: ApoE Ligated, 5 min post injection
PROPERTY_NAME: Carotid/Heart, mean

COMPOUND	ASSAYED_TARGET	PROPERTY_NAME	EXPERIMENTAL_RESULT
NC(=O)[C@H](CCCCNC(=O)CON=Cc1ccc([18F])cc1)NC(=O)CCOCCOCCOCCOCCOCCOCCOCCOCCOCCOCCOCCNC(=O)CCOCCOCCOCCOCCOCCOCCOCCOCCOCCOCCOCCNC(=O)CCN(C1(C(=O)NO)CCCC1)S(=O)(=O)c1ccc(Oc2ccc(F)cc2)cc1 [Compound 48B]	ApoE −/− mice, carotid artery	Carotid/Heart, mean	1.27
NC(=O)[C@H](Cc1ccc(O)c([123I])c1)NC(=O)CCOCCOCCOCCOCCOCCOCCOCCOCCOCCOCCOCCNC(=O)CCOCCOCCOCCOCCOCCOCCOCCOCCOCCOCCOCCNC(=O)CCN(C1(C(=O)NO)CCCC1)S(=O)(=O)c1ccc(Oc2ccc(F)cc2)cc1 [Compound 32A]	ApoE −/− mice, carotid artery	Carotid/Heart, mean	1.39
O=C(CCN(C1(C(=O)NO)CCCC1)S(=O)(=O)c1ccc(Oc2ccc(F)cc2)cc1)NCCc1ccc(O)c([123I])c1 [Compound 24A]	ApoE −/− mice, carotid artery	Carotid/Heart, mean	0.48
NC(=O)[C@H](CCCCNC(=O)CON=Cc1ccc([18F])cc1)NC(=O)CCN(C1(C(=O)NO)CCCC1)S(=O)(=O)c1ccc(Oc2ccc(F)cc2)cc1 [Compound 46B]	ApoE −/− mice, carotid artery	Carotid/Heart, mean	0.49

====

- Tested on: Lewis lung carcinoma (LLC) tumour
- TEST_NAME: Biodistribution in LLC tumour model in vivo
- Set-up: species or system C57BL/6 mice
- CONDITION_SUMMARY: 60 min post injection
PROPERTY_NAME: % ID Urinary (urinary excretion), mean (% ID)

COMPOUND	PROPERTY_NAME	EXPERIMENTAL_RESULT
NC(=O)[C@H](Cc1ccc(O)c([123I])c1)NC(=O)COCC(=O)NCCOCCOCCOCCNC(=O)[C@H](CCC(=O)O)NC(=O)[C@H](CCC(=O)O)NC(=O)[C@H](CCC(=O)O)NC(=O)[C@H](CCC(=O)O)NC(=O)[C@H](CCC(=O)O)NC(=O)CCN(C1(C(=O)NO)CCCC1)S(=O)(=O)c1ccc(Oc2ccc(F)cc2)cc1 [Compound 38A]	% ID Urinary (urinary excretion), mean	68.53
NC(=O)[C@H](CCCCNC(=O)CON=Cc1ccc([18F])cc1)NC(=O)CCOCCOCCOCCOCCOCCOCCOCCOCCOCCOCCOCCNC(=O)CCOCCOCCOCCOCCOCCOCCOCCOCCOCCOCCOCCNC(=O)CCN(C1(C(=O)NO)CCCC1)S(=O)(=O)c1ccc(Oc2ccc(F)cc2)cc1 [Compound 48B]	% ID Urinary (urinary excretion), mean	56.89
NC(=O)[C@H](Cc1ccc(O)c([123I])c1)NC(=O)CCOCCOCCOCCOCCOCCOCCOCCOCCOCCOCCOCCNC(=O)CCOCCOCCOCCOCCOCCOCCOCCOCCOCCOCCOCCNC(=O)CCN(C1(C(=O)NO)CCCC1)S(=O)(=O)c1ccc(Oc2ccc(F)cc2)cc1 [Compound 32A]	% ID Urinary (urinary excretion), mean	54.06
NC(=O)[C@H](Cc1ccc(O)c([123I])c1)NC(=O)CCOCCOCCOCCOCCOCCOCCOCCOCCOCCOCCOCCNC(=O)CCN(C1(C(=O)NO)CCCC1)S(=O)(=O)c1ccc(Oc2ccc(F)cc2)cc1 [Compound 44A]	% ID Urinary (urinary excretion), mean	6.36
NC(=O)[C@H](CCCCNC(=O)CON=Cc1ccc([18F])cc1)NC(=O)CCN(C1(C(=O)NO)CCCC1)S(=O)(=O)c1ccc(Oc2ccc(F)cc2)cc1 [Compound 46B]	% ID Urinary (urinary excretion), mean	15.02
NC(=O)[C@H](Cc1ccc(O)c([123I])c1)NC(=O)[C@H](CCC(=O)O)NC(=O)[C@H](CCC(=O)O)NC(=O)[C@H](CCC(=O)O)NC(=O)[C@H](CCC(=O)O)NC(=O)[C@H](CCC(=O)O)NC(=O)CCN(C1(C(=O)NO)CCCC1)S(=O)(=O)c1ccc(Oc2ccc(F)cc2)cc1 [Compound 21A]	% ID Urinary (urinary excretion), mean	39.99
O=C(CCN(C1(C(=O)NO)CCCC1)S(=O)(=O)c1ccc(Oc2ccc(F)cc2)cc1)NCCc1ccc(O)c([123I])c1 [Compound 24A]	% ID Urinary (urinary excretion), mean	5.5
NCCCC[C@H](NC(=O)CCN(C1(C(=O)NO)CCCC1)S(=O)(=O)c1ccc(Oc2ccc(F)cc2)cc1)C(=O)N[C@@H](CCCCN)C(=O)N[C@@H](CCCCN)C(=O)N[C@@H](CCCCN)C(=O)N[C@@H](CCCCN)C(=O)NCCOCCOCCOCCNC(=O)COCC(=O)N[C@@H](Cc1ccc(O)c([123I])c1)C(N)=O [Compound 42A]	% ID Urinary (urinary excretion), mean	31.69

====

The reader will find reported % ID/g Tumour, mean values listed item by item below.
- System: Lewis lung carcinoma (LLC) tumour
- TEST_NAME: Biodistribution in LLC tumour model in vivo
- Design: species or system C57BL/6 mice
- CONDITION_SUMMARY: 30 min post injection

COMPOUND	ASSAYED_TARGET	UNITS	% ID/g Tumour, mean
O=C(CCN(C1(C(=O)NO)CCCC1)S(=O)(=O)c1ccc(Oc2ccc(F)cc2)cc1)NCCc1ccc(O)c([123I])c1 [Compound 24A]	Lewis lung carcinoma (LLC) tumour	% ID/g	0.56
NC(=O)[C@H](Cc1ccc(O)c([123I])c1)NC(=O)COCC(=O)NCCOCCOCCOCCNC(=O)[C@H](CCC(=O)O)NC(=O)[C@H](CCC(=O)O)NC(=O)[C@H](CCC(=O)O)NC(=O)[C@H](CCC(=O)O)NC(=O)[C@H](CCC(=O)O)NC(=O)CCN(C1(C(=O)NO)CCCC1)S(=O)(=O)c1ccc(Oc2ccc(F)cc2)cc1 [Compound 38A]	Lewis lung carcinoma (LLC) tumour	% ID/g	2.14

====

Numbered stars: 1 amine (or outer) side, 2 acyl side, 3 side chain; on linkers, the order of the positions; unused ones are H or OH. Square brackets hold non-standard residues; d marks the D form. Peptide text beside a SMILES is read from it. * marks the point of attachment. Tyr(3-I) = N[C@@H](Cc1ccc(O)c(I)c1)C(=O)O; X2 = O=C(NO)C1(N(CCC(=O)[*:2])[*:1])CCCC1; X1 = O=S(=O)(c1ccc(Oc2ccc(F)cc2)cc1)*
A short record of Ki observed with MMP-8 (Homo sapiens, UniProt P22894) follows.
Sequence (P22894 101-467): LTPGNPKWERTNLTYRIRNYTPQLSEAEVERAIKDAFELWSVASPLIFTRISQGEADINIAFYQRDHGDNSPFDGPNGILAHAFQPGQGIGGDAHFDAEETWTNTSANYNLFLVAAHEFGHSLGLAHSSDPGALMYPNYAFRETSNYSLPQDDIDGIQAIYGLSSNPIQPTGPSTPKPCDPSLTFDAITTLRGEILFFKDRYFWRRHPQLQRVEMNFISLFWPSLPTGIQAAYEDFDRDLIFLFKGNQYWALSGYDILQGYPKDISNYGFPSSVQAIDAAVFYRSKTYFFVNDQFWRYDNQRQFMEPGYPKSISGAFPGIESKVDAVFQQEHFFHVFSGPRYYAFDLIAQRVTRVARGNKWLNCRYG

MOLECULE	Ki
NC(=O)[C@H](CCCCNC(=O)CON=Cc1ccc(F)cc1)NC(=O)CCOCCOCCOCCOCCOCCOCCOCCOCCOCCOCCOCCNC(=O)CCOCCOCCOCCOCCOCCOCCOCCOCCOCCOCCOCCNC(=O)CCN(C1(C(=O)NO)CCCC1)S(=O)(=O)c1ccc(Oc2ccc(F)cc2)cc1 [Compound 48]	0.5 nM
O=C(CCN(C1(C(=O)NO)CCCC1)S(=O)(=O)c1ccc(Oc2ccc(F)cc2)cc1)NCCc1ccc(O)c(I)c1 [Compound 24]	3.93 nM
NC(=O)[C@H](Cc1ccc(O)c(I)c1)NC(=O)[C@H](CCC(=O)O)NC(=O)[C@H](CCC(=O)O)NC(=O)[C@H](CCC(=O)O)NC(=O)[C@H](CCC(=O)O)NC(=O)[C@H](CCC(=O)O)NC(=O)CCN(C1(C(=O)NO)CCCC1)S(=O)(=O)c1ccc(Oc2ccc(F)cc2)cc1 [Compound 21] (X1-[X2]EEEEE[Tyr(3-I)]-NH2)	0.87 nM
NC(=O)[C@H](Cc1ccc(O)c(I)c1)NC(=O)CCOCCOCCOCCOCCOCCOCCOCCOCCOCCOCCOCCNC(=O)CCOCCOCCOCCOCCOCCOCCOCCOCCOCCOCCOCCNC(=O)CCN(C1(C(=O)NO)CCCC1)S(=O)(=O)c1ccc(Oc2ccc(F)cc2)cc1 [Compound 32]	2.17 nM
NC(=O)[C@H](CCCCNC(=O)CON=Cc1ccc(F)cc1)NC(=O)CCN(C1(C(=O)NO)CCCC1)S(=O)(=O)c1ccc(Oc2ccc(F)cc2)cc1 [Compound 46]	0.52 nM

====

The reader will find reported % ID/G Carotid, mean values listed item by item below.
- System: ApoE −/− mice, carotid artery
- TEST_NAME: Biodistribution in ApoE ligation model of atherosclerosis (ligated and sham)
- Format: in vivo
- CONDITION_SUMMARY: ApoE Ligated, 5 min post injection
PROPERTY_NAME: % ID/G Carotid, mean (% ID/G)

MOLECULE	ASSAYED_TARGET	PROPERTY_NAME	UNITS	EXPERIMENTAL_RESULT
NC(=O)[C@H](Cc1ccc(O)c([123I])c1)NC(=O)CCOCCOCCOCCOCCOCCOCCOCCOCCOCCOCCOCCNC(=O)CCOCCOCCOCCOCCOCCOCCOCCOCCOCCOCCOCCNC(=O)CCN(C1(C(=O)NO)CCCC1)S(=O)(=O)c1ccc(Oc2ccc(F)cc2)cc1 [Compound 32A]	ApoE −/− mice, carotid artery	% ID/G Carotid, mean	% ID/G	10.32
NC(=O)[C@H](CCCCNC(=O)CON=Cc1ccc([18F])cc1)NC(=O)CCOCCOCCOCCOCCOCCOCCOCCOCCOCCOCCOCCNC(=O)CCOCCOCCOCCOCCOCCOCCOCCOCCOCCOCCOCCNC(=O)CCN(C1(C(=O)NO)CCCC1)S(=O)(=O)c1ccc(Oc2ccc(F)cc2)cc1 [Compound 48B]	ApoE −/− mice, carotid artery	% ID/G Carotid, mean	% ID/G	12.01
NC(=O)[C@H](CCCCNC(=O)CON=Cc1ccc([18F])cc1)NC(=O)CCN(C1(C(=O)NO)CCCC1)S(=O)(=O)c1ccc(Oc2ccc(F)cc2)cc1 [Compound 46B]	ApoE −/− mice, carotid artery	% ID/G Carotid, mean	% ID/G	0.88
O=C(CCN(C1(C(=O)NO)CCCC1)S(=O)(=O)c1ccc(Oc2ccc(F)cc2)cc1)NCCc1ccc(O)c([123I])c1 [Compound 24A]	ApoE −/− mice, carotid artery	% ID/G Carotid, mean	% ID/G	2.67

All figures here come from patent US20070104644A1.
